Hey, just so you know, these numbers are from ChEMBL document CHEMBL1151244.

Tested on: DU-145
Experiment: Cytotoxicity against human DU145 cells after 72 hrs by MTT assay
Assay type: functional, cell-based
Conditions: DU-145, 72 h
API: label(entry) gives condition met if the entry's IC50 is strictly smaller than 20 µM; on equality or larger values it gives condition not met.

- SMILES_ENTRY: "C=C(C)[C@@H]1CC[C@]2(C(=O)O)CC[C@]3(C)[C@H](CC[C@@H]4[C@@]5(C)CC[C@H](O)C(C)(C)[C@@H]5CC[C@]43C)[C@@H]12"
  TARGET_SYSTEM: "DU-145"
  DISCRETE_LABEL: "condition not met"
- SMILES_ENTRY: "C=C(C)[C@@H]1CC[C@]2(C(=O)O)CC[C@]3(C)[C@H](CC[C@@H]4[C@@]5(C)CCC(=O)C(C)(C)[C@@H]5CC[C@]43C)[C@@H]12"
  TARGET_SYSTEM: "DU-145"
  DISCRETE_LABEL: "condition not met"
- SMILES_ENTRY: "C=C(C)[C@@H]1CC[C@]2(C(=O)O)CC[C@]3(C)[C@H](CC[C@@H]4[C@@]5(C)C=C(O)C(=O)C(C)(C)[C@@H]5CC[C@]43C)[C@@H]12"
  TARGET_SYSTEM: "DU-145"
  DISCRETE_LABEL: "condition not met"
- SMILES_ENTRY: "C=C(C)[C@@H]1CC[C@]2(C(=O)OC)CC[C@]3(C)[C@H](CC[C@@H]4[C@@]5(C)C=C(O)C(=O)C(C)(C)[C@@H]5CC[C@]43C)[C@@H]12"
  TARGET_SYSTEM: "DU-145"
  DISCRETE_LABEL: "condition met"

Consider the record given below.
[Q] IC50 under 20 µM? Item: C=C(C)[C@@H]1CC[C@]2(C(=O)O)CC[C@]3(C)[C@H](CC[C@@H]4[C@@]5(C)C=C(OC(C)=O)C(=O)C(C)(C)[C@@H]5CC[C@]43C)[C@@H]12
[A] condition met

###

System: K562
Assay: Cytotoxicity against paclitaxel-resistant human K562 cells after 72 hrs by MTT assay
Format: functional, cell-based
Details: K562, 72 h
I'd be grateful if you could share measured pIC50 for these entries.
Answers are plain numbers, as −log10 of the molar value.

See these solved cases before continuing.
- SMILES_ENTRY: "C=C(C)[C@@H]1CC[C@]2(C(=O)OC)CC[C@]3(C)[C@H](CC[C@@H]4[C@@]5(C)[C@@H](O)OC(=O)C(C)(C)[C@@H]5CC[C@]43C)[C@@H]12"
  pIC50: 4.07
- SMILES_ENTRY: "C=C(C)[C@@H]1CC[C@]2(C(=O)O)CC[C@]3(C)[C@H](CC[C@@H]4[C@@](C)(CC(=O)O)[C@H](C(C)(C)C(=O)O)CC[C@]43C)[C@@H]12"
  pIC50: 3.60
- SMILES_ENTRY: "C=C(C)[C@@H]1CC[C@]2(C(=O)OC)CC[C@]3(C)[C@H](CC[C@@H]4[C@@](C)(CC(=O)OC)[C@H](C(C)(C)C(=O)OC)CC[C@]43C)[C@@H]12"
  pIC50: 4.12

Would you mind giving pIC50 for every compound in the list below?
1. C=C(C)[C@@H]1CC[C@]2(C(=O)OC)CC[C@]3(C)[C@H](CC[C@@H]4[C@@]5(C)C=C(O)C(=O)C(C)(C)[C@@H]5CC[C@]43C)[C@@H]12
2. C=C(C)[C@@H]1CC[C@]2(C(=O)OC)CC[C@]3(C)[C@H](CC[C@@H]4[C@@](C)(CC(=O)O)[C@H](C(C)(C)C(=O)O)CC[C@]43C)[C@@H]12

[A]
5.10
4.12

###

Test system: CCRF-CEM
Assay: Cytotoxicity against human CEM cells after 72 hrs by MTT assay
Assay type: functional, cell-based
pIC50: −log10 of the molar value.
Would you please tag the item TRUE when its pIC50 is 4 or above, and FALSE when it is below?

Field: example entries. Status: answers known.
- MOLECULE: "C=C(C)[C@@H]1CC[C@]2(C(=O)OC)CC[C@]3(C)[C@H](CC[C@@H]4[C@@]5(C)CC[C@H](O)C(C)(C)[C@@H]5CC[C@]43C)[C@@H]12 [METHYL BETULINATE]"
  DISCRETE_LABEL: "FALSE"
- MOLECULE: "C=C(C)[C@@H]1CC[C@]2(C(=O)OC)CC[C@]3(C)[C@H](CC[C@@H]4[C@@]5(C)CC(=O)OC(=O)C(C)(C)[C@@H]5CC[C@]43C)[C@@H]12"
  DISCRETE_LABEL: "TRUE"
- MOLECULE: "C=C(C)[C@@H]1CC[C@]2(C(=O)OC(C)=O)CC[C@]3(C)[C@H](CC[C@@H]4[C@@]5(C)CC(=O)OC(=O)C(C)(C)[C@@H]5CC[C@]43C)[C@@H]12"
  DISCRETE_LABEL: "TRUE"
- MOLECULE: "C=C(C)[C@@H]1CC[C@]2(C(=O)OC(C)=O)CC[C@]3(C)[C@H](CC[C@@H]4[C@@]5(C)CC[C@H](OC(C)=O)C(C)(C)[C@@H]5CC[C@]43C)[C@@H]12"
  DISCRETE_LABEL: "TRUE"
- MOLECULE: "C=C(C)[C@@H]1CC[C@]2(C(=O)OC(=O)[C@]34CC[C@@H](C(=C)C)[C@@H]3[C@H]3CC[C@@H]5[C@@]6(C)CC[C@H](OC(C)=O)C(C)(C)[C@@H]6CC[C@@]5(C)[C@]3(C)CC4)CC[C@]3(C)[C@H](CC[C@@H]4[C@@]5(C)CC[C@H](OC(C)=O)C(C)(C)[C@@H]5CC[C@]43C)[C@@H]12"
  DISCRETE_LABEL: "FALSE"
- MOLECULE: "C=C(C)[C@@H]1CC[C@]2(C(=O)OC)CC[C@]3(C)[C@H](CC[C@@H]4[C@@]5(C)C=C(O)C(=O)C(C)(C)[C@@H]5CC[C@]43C)[C@@H]12"
  DISCRETE_LABEL: "TRUE"
- MOLECULE: "C=C(C)[C@@H]1CC[C@]2(CO)CC[C@]3(C)[C@H](CC[C@@H]4[C@@](C)(CCO)[C@H](C(C)(C)CO)CC[C@]43C)[C@@H]12"
  DISCRETE_LABEL: "TRUE"

Consider the record given below.
[Q] Threshold query (pIC50 >= 4) on C=C(C)[C@@H]1CC[C@]2(COC(C)=O)CC[C@]3(C)[C@H](CC[C@@H]4[C@@](C)(CCOC(C)=O)[C@H](C(C)(C)COC(C)=O)CC[C@]43C)[C@@H]12
[A] FALSE
